A collection of compounds and their measured Ki
Molecular target: hCA II (Homo sapiens)
Construct: gene CA2; recombinant, obtained in house
Test: stopped-flow CO2 hydrase assay
Type: biochemical
Settings: read-out: KI (μM) ^a / hCA I

O=C(Nc1ccc(Br)cc1)c1ccc(=O)oc1 ... > 100 µM
O=C(Nc1ccc(-c2ccccc2)cc1)c1ccc(=O)oc1 ... > 100 µM

Query: Reported Ki for O=C(NC1CCCCC1)c1ccc(=O)oc1 : what is it?
Reply: > 100 µM

Query: Reported Ki for O=C(O)c1ccc(=O)oc1 : what is it?
Reply: > 100 µM

---

Biological target: hCA IX (Homo sapiens)
Construct: gene CA9; recombinant, obtained in house
Assay: stopped-flow CO2 hydrase assay
Format: biochemical
recorded_metric: Ki (µM)

Cc1cccc(NC(=O)c2ccc(=O)oc2)c1 [compound 4, 2-Oxo-N-(m-tolyl)-2H-pyran-5-carboxamide] ... 0.174
COc1cccc(NC(=O)c2ccc(=O)oc2)c1 [compound 7] ... 0.315
O=C(Nc1ccc(Cl)cc1)c1ccc(=O)oc1 [compound 8] ... 3.2
O=C(Nc1ccccc1)c1ccc(=O)oc1 [compound 2, 2-Oxo-N-phenyl-2H-pyran-5-carboxamide] ... 3

P = O=C(O)c1ccc(=O)oc1 [compound 1, coumalic acid]
Q = Cc1ccc(NC(=O)c2ccc(=O)oc2)cc1 [compound 3, 2-Oxo-N-(p-tolyl)-2H-pyran-5-carboxamide]
R = O=C(Nc1ccccc1Cc1ccccc1)c1ccc(=O)oc1 [compound 12]
S = CC(C)c1ccc(NC(=O)c2ccc(=O)oc2)cc1 [compound 5]
Query: // smallest Ki at index 0, largest at the end Rank them, then answer with their labels in that order.
Reply: P, R, S, Q
(P: 0.073 µM, R: 0.146 µM, S: 0.273 µM, Q: 2.9 µM)

a = COc1ccc(NC(=O)c2ccc(=O)oc2)cc1 [compound 6]
b = O=C(NC1CCCCC1)c1ccc(=O)oc1 [compound 14]
c = O=C(Nc1ccccc1I)c1ccc(=O)oc1 [compound 10]
Query: Task field, ranking: reported Ki, descending order. Rank them, then answer with their labels in that order.
Reply: a, c, b
(a: 3.1 µM, c: 0.281 µM, b: 0.098 µM)

a = O=C(Nc1cccc2ccccc12)c1ccc(=O)oc1 [compound 13]
b = O=C(Nc1ccc(Br)cc1)c1ccc(=O)oc1 [compound 9]
Query: I would appreciate it if you could say which entry, a or b , has the lower Ki value. Lab log: write the label of the selected item as the result.
Reply: b

---

Target: hCA XII (Homo sapiens, UniProt O43570)
Construct: gene CA12; recombinant, obtained in house
Sequence (O43570 30-289 limits assumed): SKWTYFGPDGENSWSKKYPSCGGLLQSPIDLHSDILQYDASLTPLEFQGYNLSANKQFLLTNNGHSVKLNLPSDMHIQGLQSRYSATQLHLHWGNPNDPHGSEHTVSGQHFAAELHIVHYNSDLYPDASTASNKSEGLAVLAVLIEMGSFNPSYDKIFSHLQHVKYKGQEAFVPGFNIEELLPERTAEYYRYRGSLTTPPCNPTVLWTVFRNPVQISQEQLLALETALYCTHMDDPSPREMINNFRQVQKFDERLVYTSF
Assay: stopped-flow CO2 hydrase assay
Format: biochemical
recorded_metric: Ki (µM)

O=C(Nc1ccccc1I)c1ccc(=O)oc1 ... 0.081
O=C(Nc1ccc(Br)cc1)c1ccc(=O)oc1 ... 0.089
O=C(Nc1ccc(Cl)cc1)c1ccc(=O)oc1 ... 0.7
O=C(O)c1ccc(=O)oc1 ... 0.083
Cc1ccc(NC(=O)c2ccc(=O)oc2)cc1 [compound 3, 2-Oxo-N-(p-tolyl)-2H-pyran-5-carboxamide] ... 0.8
Cc1cccc(NC(=O)c2ccc(=O)oc2)c1 [compound 4, 2-Oxo-N-(m-tolyl)-2H-pyran-5-carboxamide] ... 0.09
CC(C)c1ccc(NC(=O)c2ccc(=O)oc2)cc1 ... 0.068
O=C(Nc1ccccc1)c1ccc(=O)oc1 [compound 2, 2-Oxo-N-phenyl-2H-pyran-5-carboxamide] ... 0.7

A = O=C(Nc1ccccc1Cc1ccccc1)c1ccc(=O)oc1
B = COc1cccc(NC(=O)c2ccc(=O)oc2)c1
Query: I would appreciate it if you could say which entry, A or B , has the lower Ki value. Lab log: write the label of the selected item as the result.
Reply: A

1 = O=C(Nc1ccc(-c2ccccc2)cc1)c1ccc(=O)oc1
2 = COc1ccc(NC(=O)c2ccc(=O)oc2)cc1
Query: I would appreciate it if you could say which entry, 1 or 2 , has the lower Ki value. Lab log: write the label of the selected item as the result.
Reply: 1
